Property: Neutralization IC50, H3-Perth09; scope: individual binders
Molecular target: HA of ca A/Perth/16/09 (H3N2) (influenza A virus)
Assay: cell-based or functional assay
attribute.measured: Neutralization IC50, H3-Perth09 (mg/L)

- Antibody 3 (antibody, V domains shown) VH: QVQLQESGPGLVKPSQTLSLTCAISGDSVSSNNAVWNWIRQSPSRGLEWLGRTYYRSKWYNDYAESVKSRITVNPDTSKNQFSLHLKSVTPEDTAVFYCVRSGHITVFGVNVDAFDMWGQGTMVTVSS VL: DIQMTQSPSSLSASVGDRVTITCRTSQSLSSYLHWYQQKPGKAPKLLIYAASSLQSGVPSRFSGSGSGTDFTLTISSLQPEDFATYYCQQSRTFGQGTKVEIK: 1.3
- Antibody 14 (antibody, V domains shown) VH: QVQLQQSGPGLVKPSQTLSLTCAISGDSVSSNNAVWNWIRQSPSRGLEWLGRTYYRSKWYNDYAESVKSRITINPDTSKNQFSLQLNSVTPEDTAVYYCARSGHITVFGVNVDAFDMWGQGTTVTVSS VL: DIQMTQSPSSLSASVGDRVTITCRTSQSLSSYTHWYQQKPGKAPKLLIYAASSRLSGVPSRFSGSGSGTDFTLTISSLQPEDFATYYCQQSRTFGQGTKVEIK: 0.47
- Antibody 12 (antibody, V domains shown) VH: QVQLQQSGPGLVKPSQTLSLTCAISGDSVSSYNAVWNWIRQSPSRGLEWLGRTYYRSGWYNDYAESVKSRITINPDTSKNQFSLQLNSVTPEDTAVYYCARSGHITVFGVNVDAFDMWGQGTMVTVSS VL: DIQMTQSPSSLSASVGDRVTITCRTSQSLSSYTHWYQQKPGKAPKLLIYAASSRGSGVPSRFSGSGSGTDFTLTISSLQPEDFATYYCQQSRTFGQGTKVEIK: 0.25
- Antibody 13 (antibody, V domains shown) VH: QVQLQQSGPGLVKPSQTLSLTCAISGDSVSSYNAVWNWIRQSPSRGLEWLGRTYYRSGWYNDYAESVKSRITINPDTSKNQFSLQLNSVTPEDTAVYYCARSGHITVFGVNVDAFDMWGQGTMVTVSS VL: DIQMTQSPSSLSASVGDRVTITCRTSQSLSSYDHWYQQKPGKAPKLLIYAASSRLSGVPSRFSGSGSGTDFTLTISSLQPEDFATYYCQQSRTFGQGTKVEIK: 0.28
